MEASURED TARGET: UniProt:P28335
Sequence (P28335 whole entry): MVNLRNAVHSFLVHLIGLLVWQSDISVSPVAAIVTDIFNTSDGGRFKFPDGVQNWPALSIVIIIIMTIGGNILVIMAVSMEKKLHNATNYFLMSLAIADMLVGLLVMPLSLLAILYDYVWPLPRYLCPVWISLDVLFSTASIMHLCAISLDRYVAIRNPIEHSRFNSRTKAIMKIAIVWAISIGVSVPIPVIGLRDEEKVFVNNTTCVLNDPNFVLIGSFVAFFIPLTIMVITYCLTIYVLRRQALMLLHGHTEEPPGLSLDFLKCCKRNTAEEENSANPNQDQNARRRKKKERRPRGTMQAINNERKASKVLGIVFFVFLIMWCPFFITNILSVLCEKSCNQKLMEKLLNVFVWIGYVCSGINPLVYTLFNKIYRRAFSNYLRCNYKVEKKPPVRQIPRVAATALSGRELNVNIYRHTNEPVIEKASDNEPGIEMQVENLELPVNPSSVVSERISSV
MEASUREMENT DESCRIPTION: Agonist activity at human 5HT2C receptor expressed in HEK293 cells assessed as calcium flux measured every sec for 3 mins by FLIPR assay
pEC50: −log10 of the molar value.

{"SMILES RECORD": "NC[C@H]1C[C@@H]1c1ccccc1OCC1CC1", "pEC50": 6.92}
